tgt: recombinant human Nav1.7 (Homo sapiens (Human))
experiment.notes: FRET-based membrane potential assay, recombinant human sodium channel Nav1.7
Type: cell-based
particulars: HEK293 cells stably expressing recombinant human Nav1.7; veratridine + scorpion venom depolarization; read-out: FRET-Membrane Potential Nav1.7 IC50
Assign IC50 to each entry below.
Numbers only, in nM.

COC(=O)N1CCN(C(=O)c2ccc3cc(Oc4ccc(C(F)(F)F)cn4)ccc3n2)CC1 = 3970
O=C(c1ccc2cc(Oc3ccc(C(F)(F)F)cn3)ccc2n1)N1CCC(F)(F)C1 = 1950
O=C(c1ccc2cc(Oc3ccc(C(F)(F)F)cn3)ccc2n1)N1CC(N2CCOCC2)C1 = 2930

Now, please, on to the next compound.
**Query** // returns reported IC50 for input `O=C(c1ccc2cc(Oc3ccc(C(F)(F)F)cn3)ccc2n1)N1CC(F)C1`
**Result** 2180

###

tgt: recombinant human Nav1.7 (Homo sapiens (Human))
experiment.notes: FRET-based membrane potential assay, recombinant human sodium channel Nav1.7
Format: cell-based
particulars: HEK293 cells stably expressing recombinant human Nav1.7; veratridine + scorpion venom depolarization; read-out: FRET-Membrane Potential Nav1.7 IC50
Assign IC50 to each entry below.
Answers are plain numbers, in µM.

Consider the worked cases shown below.
O=C(N[C@H]1CCS(=O)(=O)C1)c1ccc2cc(Oc3ccc(C(F)(F)F)cn3)ccc2n1 = 0.856
O=C(c1ccc2cc(Oc3ccc(C(F)(F)F)cn3)ccc2n1)N1C[C@@H]2C[C@@H](CO)[C@H]1C2 = 10.6
CC(C)COC(=O)N1CCN(C(=O)c2ccc3cc(Oc4ccc(C(F)(F)F)cn4)ccc3n2)CC1 = 3.32
O=C(NCCN1CCNCC1=O)c1ccc2cc(Oc3ccc(C(F)(F)F)cn3)ccc2n1 = 1.71

Parameters: items (list). Returns: IC50 for each item.
1. O=C(NCC(=O)N1CCCC1)c1ccc2cc(Oc3ccc(C(F)F)cn3)ccc2n1
2. O=C(c1ccc2cc(Oc3ccc(C(F)(F)F)cn3)ccc2n1)N1CCC2(CCC2O)CC1 (stereo not shown)
3. O=C1NC[C@@H]2CN(C(=O)c3ccc4cc(Oc5ccc(C(F)(F)F)cn5)ccc4n3)C[C@H]12
4. O=C(c1ccc2cc(Oc3ccc(C(F)(F)F)cn3)ccc2n1)N1CCN(Cc2ncco2)CC1
5. O=C(c1ccc2cc(Oc3ccc(C(F)(F)F)cn3)ccc2n1)N1CC(F)(F)C[C@H]1CO

**Result**
[0.886, 4.23, 11.1, 7.29, 3.43]

Parameters: items (list). Returns: IC50 for each item.
1. O=C(NCCC(=O)N1CCOCC1)c1ccc2cc(Oc3ccc(C(F)F)cn3)ccc2n1
2. O=C(NC1CNC1)c1ccc2cc(Oc3ccc(C(F)(F)F)cn3)ccc2n1
3. O=C(c1ccc2cc(Oc3ccc(C(F)(F)F)cn3)ccc2n1)N1CCC[C@@]12CC[C@H](O)C2
4. N#Cc1ccc(Oc2ccc3nc(C(=O)N[C@H]4CCOC4=O)ccc3c2)cc1
5. O=C(c1ccc2cc(Oc3ccc(C(F)(F)F)cn3)ccc2n1)N1CCN(Cc2cocn2)CC1

**Result**
8.69
1.67
14
0.368
6.12

**Query** // returns reported IC50 for input `O=C(c1ccc2cc(Oc3ccc(C(F)(F)F)cn3)ccc2n1)N1CC(=O)N2CCC[C@H]2C1`
**Result** 1.1

###

tgt: recombinant human Nav1.8 (Homo sapiens (Human))
Sequence (Q9Y5Y9 whole entry): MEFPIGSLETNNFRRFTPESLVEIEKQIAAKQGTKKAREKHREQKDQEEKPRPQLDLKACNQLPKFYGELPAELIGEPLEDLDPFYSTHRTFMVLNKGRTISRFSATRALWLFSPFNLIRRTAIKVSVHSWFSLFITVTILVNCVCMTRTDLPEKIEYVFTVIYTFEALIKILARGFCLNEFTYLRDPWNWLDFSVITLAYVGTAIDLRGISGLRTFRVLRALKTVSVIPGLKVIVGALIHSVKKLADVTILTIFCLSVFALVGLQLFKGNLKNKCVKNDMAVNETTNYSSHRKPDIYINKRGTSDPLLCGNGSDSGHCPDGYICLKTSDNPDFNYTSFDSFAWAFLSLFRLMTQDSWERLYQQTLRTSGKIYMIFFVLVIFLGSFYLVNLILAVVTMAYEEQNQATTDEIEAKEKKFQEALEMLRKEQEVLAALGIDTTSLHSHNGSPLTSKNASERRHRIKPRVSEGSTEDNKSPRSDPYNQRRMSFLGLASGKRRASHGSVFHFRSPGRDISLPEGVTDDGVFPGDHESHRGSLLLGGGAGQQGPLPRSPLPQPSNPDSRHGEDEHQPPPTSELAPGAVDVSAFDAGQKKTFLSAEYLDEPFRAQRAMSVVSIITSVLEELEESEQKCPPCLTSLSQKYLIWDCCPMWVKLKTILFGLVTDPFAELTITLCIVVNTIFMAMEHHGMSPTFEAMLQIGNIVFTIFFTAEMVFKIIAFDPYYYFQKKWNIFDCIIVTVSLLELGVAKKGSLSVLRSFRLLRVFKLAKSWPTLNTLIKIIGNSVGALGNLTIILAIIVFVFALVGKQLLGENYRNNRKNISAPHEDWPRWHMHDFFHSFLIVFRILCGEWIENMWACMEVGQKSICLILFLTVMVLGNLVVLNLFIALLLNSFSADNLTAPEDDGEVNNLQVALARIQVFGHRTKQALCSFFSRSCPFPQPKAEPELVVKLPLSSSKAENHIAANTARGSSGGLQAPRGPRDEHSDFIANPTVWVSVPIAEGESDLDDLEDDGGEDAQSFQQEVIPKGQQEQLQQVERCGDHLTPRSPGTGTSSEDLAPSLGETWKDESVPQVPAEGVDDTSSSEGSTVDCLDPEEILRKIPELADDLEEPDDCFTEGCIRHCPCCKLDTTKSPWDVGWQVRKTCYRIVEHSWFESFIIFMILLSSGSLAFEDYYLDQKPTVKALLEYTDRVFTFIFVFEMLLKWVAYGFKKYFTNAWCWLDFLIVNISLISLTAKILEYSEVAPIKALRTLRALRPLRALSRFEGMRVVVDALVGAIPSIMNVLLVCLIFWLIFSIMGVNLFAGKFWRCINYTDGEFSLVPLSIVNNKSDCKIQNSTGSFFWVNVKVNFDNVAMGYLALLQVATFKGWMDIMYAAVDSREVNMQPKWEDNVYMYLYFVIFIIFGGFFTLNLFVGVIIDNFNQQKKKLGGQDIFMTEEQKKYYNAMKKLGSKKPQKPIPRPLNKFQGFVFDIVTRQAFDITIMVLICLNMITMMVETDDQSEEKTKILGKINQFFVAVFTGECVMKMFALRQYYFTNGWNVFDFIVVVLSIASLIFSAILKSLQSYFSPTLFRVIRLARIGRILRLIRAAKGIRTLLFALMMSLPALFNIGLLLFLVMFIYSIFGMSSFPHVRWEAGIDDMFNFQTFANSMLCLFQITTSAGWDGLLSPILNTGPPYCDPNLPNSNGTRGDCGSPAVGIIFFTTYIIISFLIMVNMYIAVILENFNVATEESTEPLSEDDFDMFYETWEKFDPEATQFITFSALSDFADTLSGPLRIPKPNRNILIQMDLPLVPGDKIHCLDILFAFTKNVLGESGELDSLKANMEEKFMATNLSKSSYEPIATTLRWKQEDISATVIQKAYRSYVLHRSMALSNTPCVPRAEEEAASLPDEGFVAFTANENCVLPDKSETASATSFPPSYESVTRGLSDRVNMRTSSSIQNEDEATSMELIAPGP
experiment.notes: FRET-based membrane potential assay, recombinant human sodium channel Nav1.8
Format: cell-based
particulars: HEK293 cells stably expressing recombinant human Nav1.8; veratridine + scorpion venom depolarization
outcome.measure: IC50 (nM)
Numbers only, in nM.

O=C(c1ccc2cc(Oc3ccc(OC(F)(F)F)cn3)ccc2n1)N1CC[C@@H](F)C1 = 1400
O=C1C[C@H](NC(=O)c2ccc3cc(Oc4ccc(C(F)(F)F)cn4)ccc3n2)CCN1 = 1100
O=C(c1ccc2cc(Oc3ccc(C(F)(F)F)cn3)ccc2n1)N1CC(OCC(F)F)C1 = 2910

Now, please, on to the next compound.
**Query** Enter reported IC50 observed with recombinant human Nav1.8 (Homo sapiens (Human)) for `COC[C@H]1CN(C(=O)c2ccc3cc(Oc4ccc(C(F)F)cn4)ccc3n2)CCN1`
**Result** 1640

###

Assign pIC50 to each entry below.
tgt: recombinant human Nav1.7 (Homo sapiens (Human))
experiment.notes: FRET-based membrane potential assay, recombinant human sodium channel Nav1.7
Assay type: cell-based
particulars: HEK293 cells stably expressing recombinant human Nav1.7; veratridine + scorpion venom depolarization; read-out: FRET-Membrane Potential Nav1.7 IC50
Answers are plain numbers, as −log10 of the molar value.

CNC(=O)CNC(=O)c1ccc2cc(Oc3ccc(C#N)cc3)ccc2n1 [Example 145] = 5.51
N[C@@H]1[C@H]2CN(C(=O)c3ccc4cc(Oc5ccc(C(F)F)cn5)ccc4n3)C[C@@H]12 [Example 49] = 5.64
O=C(NCCc1ccccn1)c1ccc2cc(Oc3ccc(C(F)(F)F)cn3)ccc2n1 [Example 606] = 6.07

Now, please, on to the next compound.
**Query** // returns reported pIC50 for input O=C(c1ccc2cc(Oc3ccc(C(F)(F)F)cn3)ccc2n1)N1C[C@@H]2CCN[C@@H]2C1 [Example 280]
**Result** 6.22

###

tgt: recombinant human Nav1.7 (Homo sapiens (Human), UniProt Q15858)
Sequence (Q15858 whole entry): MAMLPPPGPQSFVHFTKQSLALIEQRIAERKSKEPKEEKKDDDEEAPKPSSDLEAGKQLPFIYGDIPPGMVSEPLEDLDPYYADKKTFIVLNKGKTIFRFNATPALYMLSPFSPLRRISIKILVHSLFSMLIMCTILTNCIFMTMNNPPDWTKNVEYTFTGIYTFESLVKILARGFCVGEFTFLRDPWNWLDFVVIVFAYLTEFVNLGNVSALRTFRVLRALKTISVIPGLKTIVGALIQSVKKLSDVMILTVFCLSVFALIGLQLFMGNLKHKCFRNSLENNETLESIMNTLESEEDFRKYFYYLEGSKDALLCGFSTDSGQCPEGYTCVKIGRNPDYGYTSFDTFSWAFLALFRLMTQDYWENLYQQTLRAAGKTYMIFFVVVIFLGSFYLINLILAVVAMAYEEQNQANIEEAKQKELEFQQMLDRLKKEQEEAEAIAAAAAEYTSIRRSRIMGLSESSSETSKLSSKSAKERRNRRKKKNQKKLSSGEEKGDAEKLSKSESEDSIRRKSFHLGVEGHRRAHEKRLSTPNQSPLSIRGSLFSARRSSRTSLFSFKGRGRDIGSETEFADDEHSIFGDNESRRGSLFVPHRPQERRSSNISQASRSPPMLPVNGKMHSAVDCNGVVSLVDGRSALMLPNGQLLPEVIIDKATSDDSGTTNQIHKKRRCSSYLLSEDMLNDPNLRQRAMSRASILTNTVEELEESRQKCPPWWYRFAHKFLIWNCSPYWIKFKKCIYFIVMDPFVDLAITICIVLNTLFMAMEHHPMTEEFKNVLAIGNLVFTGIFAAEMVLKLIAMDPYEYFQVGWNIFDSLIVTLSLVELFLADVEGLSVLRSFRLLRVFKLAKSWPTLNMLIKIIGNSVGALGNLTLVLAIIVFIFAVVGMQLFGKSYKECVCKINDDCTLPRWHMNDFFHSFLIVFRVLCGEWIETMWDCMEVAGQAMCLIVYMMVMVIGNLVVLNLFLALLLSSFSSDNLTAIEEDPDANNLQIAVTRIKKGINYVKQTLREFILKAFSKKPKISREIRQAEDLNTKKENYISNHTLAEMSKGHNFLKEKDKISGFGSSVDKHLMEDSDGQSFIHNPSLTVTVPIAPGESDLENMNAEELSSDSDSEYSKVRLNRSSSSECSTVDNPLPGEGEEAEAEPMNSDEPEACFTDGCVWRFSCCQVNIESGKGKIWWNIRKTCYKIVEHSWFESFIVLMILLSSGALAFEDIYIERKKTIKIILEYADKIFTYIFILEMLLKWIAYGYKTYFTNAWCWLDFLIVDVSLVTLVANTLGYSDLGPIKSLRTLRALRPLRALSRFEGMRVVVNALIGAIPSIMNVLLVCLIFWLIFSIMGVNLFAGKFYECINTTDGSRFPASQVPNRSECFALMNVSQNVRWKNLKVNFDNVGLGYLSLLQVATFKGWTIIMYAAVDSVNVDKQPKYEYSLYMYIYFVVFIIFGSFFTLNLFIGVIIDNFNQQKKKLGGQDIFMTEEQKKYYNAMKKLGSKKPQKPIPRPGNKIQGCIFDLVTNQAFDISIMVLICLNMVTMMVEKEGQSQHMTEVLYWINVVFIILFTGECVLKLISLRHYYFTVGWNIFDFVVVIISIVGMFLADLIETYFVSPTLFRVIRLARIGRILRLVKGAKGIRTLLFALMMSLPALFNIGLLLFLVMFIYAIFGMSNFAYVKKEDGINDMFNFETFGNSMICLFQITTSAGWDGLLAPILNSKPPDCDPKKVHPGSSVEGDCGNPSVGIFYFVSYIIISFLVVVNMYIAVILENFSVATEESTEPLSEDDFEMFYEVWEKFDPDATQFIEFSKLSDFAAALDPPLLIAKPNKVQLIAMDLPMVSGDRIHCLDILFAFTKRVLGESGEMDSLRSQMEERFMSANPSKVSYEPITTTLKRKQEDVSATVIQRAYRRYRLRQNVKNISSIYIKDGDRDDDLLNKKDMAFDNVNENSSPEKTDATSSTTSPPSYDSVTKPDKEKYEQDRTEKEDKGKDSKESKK
experiment.notes: FRET-based membrane potential assay, recombinant human sodium channel Nav1.7
Assay type: cell-based
particulars: HEK293 cells stably expressing recombinant human Nav1.7; veratridine + scorpion venom depolarization; read-out: FRET-Membrane Potential Nav1.7 IC50
Assign pIC50 to each entry below.
One number for each entry, as −log10 of the molar value.

O=C(c1ccc2cc(Oc3ccc(C(F)(F)F)cn3)ccc2n1)N1CCN(c2ccc(Cl)cn2)CC1 = 5.52
O=C(NC1CCSC1)c1ccc2cc(Oc3ccc(C(F)(F)F)cn3)ccc2n1 (centres unmarked) = 5.61
O=C(c1ccc2cc(Oc3ccc(C(F)(F)F)cn3)ccc2n1)N1CCN2C(=O)CCC2C1 (centres unmarked) = 5.10
CC(C)[C@H](CO)NC(=O)c1ccc2cc(Oc3ccc(C#N)cc3)ccc2n1 = 5.49
O=C(c1ccc2cc(Oc3ccc(C(F)(F)F)cn3)ccc2n1)N1CC[C@H](F)C1 = 5.65

Parameters: items (list). Returns: pIC50 for each item.
1. C[C@H]1CN(C(=O)c2ccc3cc(Oc4ccc(C(F)(F)F)nc4)ccc3n2)CCN1
2. N#Cc1ccc(Oc2ccc3nc(C(=O)N4CCS(=O)(=O)CC4)ccc3c2)cc1
3. CCN1CCC(N(CC)C(=O)c2ccc3cc(Oc4ccc(C(F)(F)F)cn4)ccc3n2)CC1=O (centres unmarked)

**Result**
1. 5.60
2. 4.92
3. 6.25

Parameters: items (list). Returns: pIC50 for each item.
1. O=C(c1ccc2cc(Oc3ccc(C(F)(F)F)cn3)ccc2n1)N1CCC2(CC1)OCCO2
2. CC[C@H]1CN(C(=O)c2ccc3cc(Oc4ccc(C(F)(F)F)cn4)ccc3n2)CCN1
3. O=C(c1ccc2cc(Oc3ccc(C(F)(F)F)cn3)ccc2n1)N1CC(c2cccnc2)C1
4. N#Cc1ccc(Oc2ccc3nc(C(=O)N[C@H]4CCC[C@@H](O)C4)ccc3c2)cc1
5. N#Cc1ccc(Oc2ccc3nc(C(=O)N4CCNC(=O)C4)ccc3c2)cc1
6. Cc1ccccc1NC(=O)CCNC(=O)c1ccc2cc(Oc3ccc(C(F)(F)F)cn3)ccc2n1
7. O=C(c1ccc2cc(Oc3ccc(C(F)(F)F)nc3)ccc2n1)N1CCNCC1
8. O=C(NCCC1CS(=O)(=O)C1)c1ccc2cc(Oc3ccc(C(F)(F)F)cn3)ccc2n1

**Result**
[5.70, 6.31, 5.98, 5.59, 5.08, 6.53, 5.90, 5.63]

Parameters: items (list). Returns: pIC50 for each item.
1. O=C(c1ccc2cc(Oc3ccc(C(F)(F)F)cn3)ccc2n1)N1C[C@@H](F)C[C@H]1CO
2. CCOC(=O)N1CCN(C(=O)c2ccc3cc(Oc4ccc(C(F)(F)F)cn4)ccc3n2)CC1
3. O=C(NC[C@@H]1CCCN1)c1ccc2cc(Oc3ccc(C(F)(F)F)cn3)ccc2n1
4. O=C(NCCN1CCCCC1)c1ccc2cc(Oc3ccc(C(F)(F)F)cn3)ccc2n1
5. O=C(NCC1C[S+]([O-])C1)c1ccc2cc(Oc3ccc(C(F)(F)F)cn3)ccc2n1 (centres unmarked)
6. CC(C)OC(=O)N1CCN(C(=O)c2ccc3cc(Oc4ccc(C(F)(F)F)cn4)ccc3n2)CC1
7. C=CCN(C)C(=O)c1ccc2cc(Oc3ccc(C(F)(F)F)cn3)ccc2n1

**Result**
4.91
5.41
5.92
6.69
5.60
5.51
5.50

Parameters: items (list). Returns: pIC50 for each item.
1. O=C(c1ccc2cc(Oc3ccc(C(F)(F)F)cn3)ccc2n1)N1CC(O)C1
2. O=C(NCCNc1ccccn1)c1ccc2cc(Oc3ccc(C(F)(F)F)cn3)ccc2n1
3. O=C(N[C@@H]1CS(=O)(=O)C[C@H]1O)c1ccc2cc(Oc3ccc(C(F)F)cn3)ccc2n1
4. NC1CCN(C(=O)c2ccc3cc(Oc4ccc(C(F)(F)F)cn4)ccc3n2)CC1
5. CC(=O)C1CN(C(=O)c2ccc3cc(Oc4ccc(C(F)(F)F)cn4)ccc3n2)C1

**Result**
1. 5.66
2. 6.21
3. 5.26
4. 5.01
5. 6.11

Parameters: items (list). Returns: pIC50 for each item.
1. CC(C)[C@H]1CN(C(=O)c2ccc3cc(Oc4ccc(C#N)cc4)ccc3n2)CCN1
2. O=C(NCC(=O)N1CCCCC1)c1ccc2cc(Oc3ccc(C(F)(F)F)cn3)ccc2n1

**Result**
[6.12, 6.16]
